assay: Size and zeta potential of nanocomplexes by DLS; assay type: physicochemical; details: nanocomplexes with DNA at charge ratio 10; DNA 25 ng/μl
Property measured: PDI
One number for each entry.

Examples with their reported PDI follow.
• LLYWFRRRHRHHRRRHRR [Mgpe-4, primary amphipathic peptide by rearrangement of the amino acids of Mgpe-3] = 0.155
• SRLSHLRHHYSKKWHRFR (listed as Homo sapiens) [Mgpe-1, 18 mer amphipathic peptide derived from Human Protein phosphatase 1E; tested as nanocomplex with plasmid DNA] = 0.151
• RRLRHLRHHYRRRWHRFR [Mgpe-3] = 0.152
• CLLYWFRRRHRHHRRRHRRC [Mgpe-10, Mgpe-4 with a cysteine residue at each end] = 0.206

Next sequence, please.
Asked: Consider the sequence CRRLRHLRHHYRRRWHRFRC [Mgpe-9, Mgpe-3 with a cysteine residue at each end] and give its measured PDI.
Given back: 0.169

* * *

Consider the following sequences; for each one, report its Zeta potential(mV).
assay: Size and zeta potential of nanocomplexes by DLS; format: physicochemical; settings: nanocomplexes with DNA at charge ratio 10; DNA 25 ng/μl
One number for each entry, in mV.

- CLLYWFRRRHRHHRRRHRRC [Mgpe-10, Mgpe-4 with a cysteine residue at each end]: 57.6
- CRRLRHLRHHYRRRWHRFRC [Mgpe-9, Mgpe-3 with a cysteine residue at each end]: 43.4

Report Zeta potential(mV) for every entry below.
1. RRLRHLRHHYRRRWHRFR [Mgpe-3]
2. LLYWFRRRHRHHRRRHRR [Mgpe-4, primary amphipathic peptide by rearrangement of the amino acids of Mgpe-3]
3. SRLSHLRHHYSKKWHRFR (listed as Homo sapiens) [Mgpe-1, 18 mer amphipathic peptide derived from Human Protein phosphatase 1E; tested as nanocomplex with plasmid DNA]

Given back:
[33.5, 25.4, 36.5]

* * *

Please go through the items and note down their Size (nm).
assay: Size and zeta potential of nanocomplexes by DLS; format: physicochemical; conditions: nanocomplexes with DNA at charge ratio 10; DNA 25 ng/μl; deionized water, 25° C.
Give bare numbers, in nm.

# per-item lookup of Size (nm); items listed below
1. RRLRHLRHHYRRRWHRFR [Mgpe-3]
2. SRLSHLRHHYSKKWHRFR (listed as Homo sapiens) [Mgpe-1, 18 mer amphipathic peptide derived from Human Protein phosphatase 1E; tested as nanocomplex with plasmid DNA]
3. LLYWFRRRHRHHRRRHRR [Mgpe-4, primary amphipathic peptide by rearrangement of the amino acids of Mgpe-3]
4. CRRLRHLRHHYRRRWHRFRC [Mgpe-9, Mgpe-3 with a cysteine residue at each end]
5. CLLYWFRRRHRHHRRRHRRC [Mgpe-10, Mgpe-4 with a cysteine residue at each end]

Given back:
1: 63.2; 2: 80.1; 3: 62.8; 4: 75.8; 5: 66.2
